# Study System: Tyrosine-protein kinase ABL1 (Homo sapiens);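 further: reported values are mean percent inhibition of ABL1 kinase activity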
# Particulars: at 1 µM
Grouping rule (inhibition): low = under 10%, intermediate = from 10% up to 20%, high = 20% and over

Hello team, could you let me know which band the following compound falls into: CCn1c(-c2nonc2N)nc2ccncc21
low

Now try Cc1ccc(NC(=O)c2ccnc(N3CCCC3)c2)cc1-c1ccc(C(=O)NCC2CC2)cc1 .
low

Now try O=C1Nc2ccc(C(=O)c3ccco3)cc2C1=Cc1cc(Cl)c(O)c(Cl)c1 .
high

Now try COc1cc(C=NNc2ncnc3c2cnn3-c2ccccc2)ccc1O .
high

Now try CN(C)c1cc2c(Nc3ccc4nc(Cc5ccccc5)[nH]c4c3)ncnc2cn1 .
low

New cases:
Hello team, could you let me know which band the following compound falls into: CC(C)=Cc1cccc2c1/C(=N/Nc1ccc(S(N)(=O)=O)cc1)C(=O)N2
intermediate

Now try Nc1nc(-c2ccc3c(c2)C(=Cc2cc(Br)c(O)c(Br)c2)C(=O)N3)cs1 .
intermediate

Now try CN1CCC(C(=O)Nc2n[nH]c3nnc(-c4ccccc4)cc23)CC1 .
low

Now try CS(=O)(=O)CCNCc1ccc(-c2ccc3ncnc(Nc4ccc(OCc5ccccc5)c(Cl)c4)c3c2)o1 .
low

Now try O=C1NC(=O)C(N2CCc3ccccc32)=C1c1ccc(Cl)cc1 .
low

Now try CNC(=O)c1cncc(/C=C/c2c(Cl)cccc2Cl)c1 .
high

Now try COc1ccc2cc(-c3c(-c4ccncc4)nc(-c4ccc([S+](C)[O-])cc4)n3C)ccc2c1 (stereo not given) .
low

Now try Nc1ncnc2occ(-c3ccc(NC(=O)Nc4cc(C(F)(F)F)cc(C(F)(F)F)c4)cc3)c12 .
high

Now try c1cnn2ncc(-c3ccnc(Nc4ccc5c(c4)OCCO5)n3)c2c1 .
high

Now try Cc1cc(O)cc(C)c1/C=C/c1cncc(-c2nn[nH]n2)c1 .
high

Now try CS(=O)(=O)CCNCc1nc(-c2ccc3ncnc(Nc4ccc(F)c(Cl)c4)c3c2)cs1 .
intermediate

Now try COC(=O)Nc1nc2cc(Oc3cccc(NC(=O)Nc4cc(C(F)(F)F)ccc4F)c3)ccc2[nH]1 .
high

Now try Cc1nn(C)c2cc(N(C)c3ccnc(Nc4cccc(S(N)(=O)=O)c4)n3)ccc12 .
high

Now try COc1ccc(-c2nn3ncccc3c2-c2ccnc(Nc3ccc(Cl)c(C(F)(F)F)c3)n2)cc1 .
intermediate

---

# Study System: Rho-associated protein kinase 1 (Homo sapiens);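 further: values are mean percent inhibition of ROCK1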
# Particulars: at 0.1 µM
Result Type: inhibition
Field note: include the unit after the figure.

Known inhibition results, listed for orientation:
Any idea what its inhibition is? The compound is Cc1cc(O)cc(C)c1/C=C/c1cncc(-c2nn[nH]n2)c1
1.38%

Now try CCN1CCC(CC(=O)Nc2n[nH]c3nc(-c4cccs4)c(Br)cc23)CC1 .
0.12%

Now try COc1cc2ncn(-c3cc(OCc4ccccc4C(F)(F)F)c(C(N)=O)s3)c2cc1OC .
1.68%

Now try CNC(=O)c1cncc(/C=C/c2c(Cl)cccc2Cl)c1 .
1.46%

Now try [O-][S+]1CCN(Cc2ccc(-c3ccc4ncnc(Nc5ccc(OCc6ccccc6)c(F)c5)c4c3)o2)CC1 .
-0.61%

Go through the items and report each one's inhibition.
1. CS(=O)(=O)CCNCc1ccc(-c2ccc3ncnc(Nc4ccc(OCc5ccccc5)c(Cl)c4)c3c2)o1
2. CCn1c(-c2nonc2N)nc2c(N3CCCC3)nccc21
3. COc1ccc(-c2nn3ncccc3c2-c2ccnc(Nc3ccc(Cl)c(C(F)(F)F)c3)n2)cc1
4. CS(=O)(=O)CCNCc1nc(-c2ccc3ncnc(Nc4ccc(F)c(Cl)c4)c3c2)cs1
5. Nc1ncnc2occ(-c3ccc(NC(=O)Nc4cccc(C(F)(F)F)c4)cc3)c12

1. 1.32%
2. 3.22%
3. 1.25%
4. 1.23%
5. 4.04%

---

Give measured inhibition for each item. Keep answers brief.
# Study System: 5'-AMP-activated protein kinase catalytic subunit alpha-2 (Homo sapiens) (UniProt P54646);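 further: mean inhibition measured on the AMPK complex of alpha2, beta1 and gamma1 subunits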
# Sequence (P54646 whole entry, looked up): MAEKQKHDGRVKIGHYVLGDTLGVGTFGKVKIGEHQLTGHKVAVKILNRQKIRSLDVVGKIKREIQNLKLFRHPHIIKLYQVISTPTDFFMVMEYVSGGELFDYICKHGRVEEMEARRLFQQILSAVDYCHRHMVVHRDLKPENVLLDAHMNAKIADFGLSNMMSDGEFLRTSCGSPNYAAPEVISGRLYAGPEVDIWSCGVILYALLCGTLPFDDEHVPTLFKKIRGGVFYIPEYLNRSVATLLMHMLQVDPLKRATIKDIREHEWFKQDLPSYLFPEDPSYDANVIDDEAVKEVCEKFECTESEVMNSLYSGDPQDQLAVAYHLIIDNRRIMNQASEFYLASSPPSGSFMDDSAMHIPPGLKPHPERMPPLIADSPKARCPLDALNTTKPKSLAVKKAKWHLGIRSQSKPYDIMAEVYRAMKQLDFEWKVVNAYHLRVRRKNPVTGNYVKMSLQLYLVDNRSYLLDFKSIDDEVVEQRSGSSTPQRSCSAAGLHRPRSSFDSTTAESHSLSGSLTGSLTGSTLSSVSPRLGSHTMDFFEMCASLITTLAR
# Particulars: at 0.1 µM
# Description: GSK_PKIS: AMPKA2 (A2B1G1) mean inhibition at 0.1 uM [Nanosyn]
Give bare numbers, in %.

Known inhibition results, listed for orientation:
Any idea what its inhibition is? The compound is CCn1c(-c2nonc2N)nc2cncc(C(=O)N3CC[C@H](N)C3)c21
4.72

Now try COc1cc2ncn(-c3cc(O[C@H](C)c4ccccc4Cl)c(C(N)=O)s3)c2cc1OC .
2.58

Now try COc1cc2ncn(-c3cc(O[C@@H](C)c4ccccc4Cl)c(C(N)=O)s3)c2cc1OC .
1.04

Now try Cc1nnc(-c2ccc(C)c(-c3ccc(C(=O)Nc4cccc(C#N)c4)cc3)c2)o1 .
-0.06

Go through the items and report each one's inhibition.
1. Nc1ncnc2occ(-c3ccc(NC(=O)Nc4cc(C(F)(F)F)cc(C(F)(F)F)c4)cc3)c12
2. c1cnn2ncc(-c3ccnc(Nc4ccc5c(c4)OCCO5)n3)c2c1
3. Cc1ccc(NC(=O)c2ccnc(N3CCCC3)c2)cc1-c1ccc(C(=O)NCC2CC2)cc1
4. CCN1CCC(CC(=O)Nc2n[nH]c3nc(-c4cccs4)c(Br)cc23)CC1
5. CS(=O)(=O)CCNCc1ccc(-c2ccc3ncnc(Nc4ccc(OCc5ccccc5)c(Cl)c4)c3c2)o1
6. Cn1cc(C=C2C(=O)Nc3cccnc32)c2ccccc21
7. COc1ccc(COc2ccc(Cc3cnc(N)nc3N)cc2OC)cc1
8. Fc1cccc(COc2ccc(Nc3ncnc4sc(-c5cccs5)cc34)cc2Cl)c1

1: -0.39; 2: 1.53; 3: 6.89; 4: 3.33; 5: 3.82; 6: 4.46; 7: 2.65; 8: 2.89

Go through the items and report each one's inhibition.
1. Fc1cccc(COc2ccc(Nc3ncnc4cc(-c5ccc[nH]5)sc34)cc2Cl)c1
2. NC(=O)c1ccc(-c2nc(-c3ccccn3)c(-c3ccc4c(c3)OCO4)[nH]2)cc1

[3.81, 0.83]

---

# Study System: cGMP-dependent protein kinase 1 (Homo sapiens) (UniProt Q13976);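 further: listed percent inhibition of PRKG1 is a mean value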
# Sequence (Q13976 whole entry): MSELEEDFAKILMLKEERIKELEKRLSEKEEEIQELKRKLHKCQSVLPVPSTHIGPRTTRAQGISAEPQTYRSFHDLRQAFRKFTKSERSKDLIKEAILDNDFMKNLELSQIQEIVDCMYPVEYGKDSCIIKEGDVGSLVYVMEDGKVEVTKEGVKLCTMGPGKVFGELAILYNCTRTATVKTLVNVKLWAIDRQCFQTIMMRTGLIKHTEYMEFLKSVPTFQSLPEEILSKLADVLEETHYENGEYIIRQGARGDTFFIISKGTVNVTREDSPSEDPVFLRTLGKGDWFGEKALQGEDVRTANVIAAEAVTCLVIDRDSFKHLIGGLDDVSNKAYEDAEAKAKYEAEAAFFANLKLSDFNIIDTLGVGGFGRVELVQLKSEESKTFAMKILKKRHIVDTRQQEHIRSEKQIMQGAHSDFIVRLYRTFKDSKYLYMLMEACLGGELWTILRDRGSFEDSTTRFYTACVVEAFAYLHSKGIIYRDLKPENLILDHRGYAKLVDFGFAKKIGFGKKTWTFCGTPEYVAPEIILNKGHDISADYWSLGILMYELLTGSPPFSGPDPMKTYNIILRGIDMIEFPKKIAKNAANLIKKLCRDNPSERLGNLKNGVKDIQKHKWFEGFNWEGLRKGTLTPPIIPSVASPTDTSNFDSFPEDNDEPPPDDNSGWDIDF
# Particulars: at 1 µM
Grouping rule (inhibition): bucket A: < 4%; bucket B: ≥ 4% and < 5%; bucket C: ≥ 5%

Hello team, could you let me know which band the following compound falls into: CS(=O)(=O)CCNCc1ccc(-c2ccc3ncnc(Nc4ccc(OCc5ccccc5)c(Cl)c4)c3c2)o1
bucket A

Now try CC(C)=Cc1cccc2c1/C(=N/Nc1ccc(S(N)(=O)=O)cc1)C(=O)N2 .
bucket B

Now try O=C1NC(=O)C(c2ccccc2Cl)=C1Nc1cccc(O)c1 .
bucket A

Now try CCn1c(-c2nonc2N)nc2c(C#CC(C)(C)O)nc(OC[C@@H](N)c3ccccc3)cc21 .
bucket C

Now try O=C1NC(=O)C(N2CCc3ccccc32)=C1c1ccc(Cl)cc1 .
bucket B

Now try CNC(=O)c1cncc(/C=C/c2c(Cl)cccc2Cl)c1 .
bucket C

Now try COc1cccc(-n2ncc3c(N/N=C/c4cccc(F)c4)ncnc32)c1 .
bucket A

Now try NC(=O)c1cccc(Nc2nccc(Nc3cccc4[nH]ncc34)n2)c1 .
bucket C

New cases:
Hello team, could you let me know which band the following compound falls into: CN(C)c1cc2c(Nc3ccc4nc(Cc5ccccc5)[nH]c4c3)ncnc2cn1
bucket C

Now try Cc1ccc(C(=O)NC2CCCCC2)cc1-c1ccc(C(=O)NCC2CC2)cc1 .
bucket B

---

Give measured inhibition for each item. Keep answers brief.
# Study System: RAF proto-oncogene serine/threonine-protein kinase (Homo sapiens);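 further: values are the mean percent inhibition of CRAF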
# Particulars: at 1 µM
One number for each entry, in %.

Known inhibition results, listed for orientation:
Any idea what its inhibition is? The compound is CN(C)c1cc2c(Nc3ccc4nc(Cc5ccccc5)[nH]c4c3)ncnc2cn1
-7.27

Now try CCN1CCC(CC(=O)Nc2n[nH]c3nc(-c4cccs4)c(Br)cc23)CC1 .
1.23

Now try Nc1ncnc2occ(-c3ccc(NC(=O)Nc4cccc(C(F)(F)F)c4)cc3)c12 .
-2.58

Now try Cc1cc(O)cc(C)c1/C=C/c1cncc(-c2nn[nH]n2)c1 .
60.8

New cases:
Any idea what its inhibition is? The compound is CN1CCC(C(=O)Nc2n[nH]c3nnc(-c4ccccc4)cc23)CC1
8.96

---

Give measured inhibition for each item. Keep answers brief.
# Study System: Inhibitor of nuclear factor kappa-B kinase subunit alpha (Homo sapiens) (UniProt O15111);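 further: mean inhibition of IKKA, from the GSK PKIS data set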
# Sequence (whole entry): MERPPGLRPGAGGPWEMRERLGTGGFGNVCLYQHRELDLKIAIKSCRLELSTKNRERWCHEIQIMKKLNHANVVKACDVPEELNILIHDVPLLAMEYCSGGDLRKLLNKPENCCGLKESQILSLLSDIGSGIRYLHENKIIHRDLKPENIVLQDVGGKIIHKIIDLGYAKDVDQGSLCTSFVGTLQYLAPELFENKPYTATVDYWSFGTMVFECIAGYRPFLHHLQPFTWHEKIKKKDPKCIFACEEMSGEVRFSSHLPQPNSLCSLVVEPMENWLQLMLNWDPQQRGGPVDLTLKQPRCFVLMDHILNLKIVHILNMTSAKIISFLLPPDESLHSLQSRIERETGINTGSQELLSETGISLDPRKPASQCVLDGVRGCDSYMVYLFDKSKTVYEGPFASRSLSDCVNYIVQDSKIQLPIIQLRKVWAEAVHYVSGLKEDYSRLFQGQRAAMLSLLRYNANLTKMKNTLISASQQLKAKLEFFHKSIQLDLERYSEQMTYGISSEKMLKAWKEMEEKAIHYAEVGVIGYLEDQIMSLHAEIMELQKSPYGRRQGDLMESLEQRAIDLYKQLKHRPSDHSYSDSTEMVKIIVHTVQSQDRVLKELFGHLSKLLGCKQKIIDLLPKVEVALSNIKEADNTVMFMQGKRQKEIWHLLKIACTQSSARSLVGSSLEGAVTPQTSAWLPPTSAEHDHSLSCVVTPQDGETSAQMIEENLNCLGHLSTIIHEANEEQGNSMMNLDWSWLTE
# Particulars: at 1 µM
One number for each entry, in %.

Known inhibition results, listed for orientation:
State its inhibition on Inhibitor of nuclear factor kappa-B kinase subunit alpha (Homo sapiens) (UniProt O15111): CS(=O)(=O)CCN(CC#N)Cc1ccc(-c2ccc3ncnc(Nc4ccc(OCc5cccc(F)c5)c(Cl)c4)c3c2)o1
2.09

Now try CC1=C(C(=O)Nc2ccc3[nH]ncc3c2)C(c2ccc(Cl)c(Cl)c2)CC(=O)N1 (centres undefined) .
2.52

Now try COc1ccc(COc2ccc(Cc3cnc(N)nc3N)cc2OC)cc1 .
-7.71

Now try CC(=O)Nc1cccc(C#Cc2cncnc2Nc2ccc(OCc3cccc(F)c3)c(Cl)c2)n1 .
-1.99

Now try COc1cc2c(cc1Nc1nc(N3CCc4ccccc43)c3cc[nH]c3n1)N(C(=O)CN(C)C)CC2 .
0.37

Now try Cc1nn(C)c2cc(N(C)c3ccnc(Nc4cccc(S(N)(=O)=O)c4)n3)ccc12 .
3.6

Now try COc1ccc(-c2coc3ncnc(N)c23)cc1 .
-4.53

Now try CC1=C(C(=O)Nc2ccc3[nH]ncc3c2)C(c2ccc3ccccc3c2)CC(=O)N1 (centres undefined) .
1.55

Go through the items and report each one's inhibition.
1. CCCN1CCC(Oc2cc(Nc3nc(Nc4cccc(F)c4C(N)=O)c4cc[nH]c4n3)c(OC)cc2Cl)CC1
2. CCn1c(-c2nonc2N)nc2c(C#CC(C)(C)O)nc(OC[C@@H](N)c3ccccc3)cc21
3. CCn1c(-c2nonc2N)nc2cnc(Oc3cccc(NC(=O)c4ccc(OCCN5CCOCC5)cc4)c3)cc21
4. CC1=C(C(=O)Nc2ccc3[nH]ncc3c2)C(c2ccc(F)cc2)NC(=O)N1 (centres undefined)
5. COc1cc(C=NNc2ncnc3c2cnn3-c2ccccc2)ccc1O
6. COC(=O)Nc1nc2cc(Oc3ccc(NC(=O)Nc4cccc(C(=O)O)c4)cc3)ccc2[nH]1
7. COc1ccc(-c2ccncc2)cc1C(N)=O
8. O=C1NC(=O)C(c2ccccc2Cl)=C1Nc1cccc(O)c1

1: -9.18; 2: 2.26; 3: 10.1; 4: 7.79; 5: -1.27; 6: -3.86; 7: 9.39; 8: 1.21

Reference source: ChEMBL document CHEMBL1961873
